test-system: UniProt:P56524
Sequence (P56524 whole entry): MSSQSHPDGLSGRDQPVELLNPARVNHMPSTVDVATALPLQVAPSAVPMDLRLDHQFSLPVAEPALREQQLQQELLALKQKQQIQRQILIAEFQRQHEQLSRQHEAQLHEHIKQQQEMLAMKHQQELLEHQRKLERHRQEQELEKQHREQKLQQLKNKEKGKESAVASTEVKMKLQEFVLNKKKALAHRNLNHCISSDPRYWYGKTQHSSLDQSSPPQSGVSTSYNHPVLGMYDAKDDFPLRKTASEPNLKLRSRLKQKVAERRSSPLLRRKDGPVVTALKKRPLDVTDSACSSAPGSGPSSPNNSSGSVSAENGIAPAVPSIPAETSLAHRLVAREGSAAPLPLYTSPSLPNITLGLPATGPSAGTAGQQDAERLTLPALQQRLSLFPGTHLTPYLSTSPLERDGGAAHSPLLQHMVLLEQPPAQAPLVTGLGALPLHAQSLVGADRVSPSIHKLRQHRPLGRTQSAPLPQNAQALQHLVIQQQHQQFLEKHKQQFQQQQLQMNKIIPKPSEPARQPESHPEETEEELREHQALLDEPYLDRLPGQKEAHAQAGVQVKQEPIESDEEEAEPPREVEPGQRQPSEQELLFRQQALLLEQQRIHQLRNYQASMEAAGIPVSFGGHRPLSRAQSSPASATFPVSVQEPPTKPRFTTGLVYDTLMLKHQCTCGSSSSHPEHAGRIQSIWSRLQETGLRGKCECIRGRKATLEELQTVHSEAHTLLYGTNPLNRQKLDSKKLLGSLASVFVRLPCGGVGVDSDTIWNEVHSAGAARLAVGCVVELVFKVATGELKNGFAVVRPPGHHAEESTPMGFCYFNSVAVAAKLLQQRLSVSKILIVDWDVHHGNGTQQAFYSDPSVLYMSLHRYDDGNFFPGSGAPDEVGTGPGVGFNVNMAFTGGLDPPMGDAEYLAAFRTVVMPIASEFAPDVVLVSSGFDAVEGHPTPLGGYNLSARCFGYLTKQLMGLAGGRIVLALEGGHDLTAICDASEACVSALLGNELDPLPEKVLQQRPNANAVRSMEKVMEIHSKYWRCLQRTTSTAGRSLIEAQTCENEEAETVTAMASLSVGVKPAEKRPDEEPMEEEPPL
pIC50: −log10 of the molar value.
Documented pIC50 across a set of molecules
value-kind: pIC50

1) CCNc1nc2ccc(-c3cn(Cc4ccc(-c5nnc(C(F)F)o5)cn4)nn3)cc2[nH]1 : < 4.52
2) Nc1nc2cc(-c3nnn(Cc4ccc(-c5nnc(C(F)F)o5)cn4)n3)ccc2o1 : < 4.52
3) Nc1nc2cc(-c3cn(Cc4ccc(-c5nnc(C(F)F)o5)cc4)nn3)ccc2[nH]1 : < 4.52

###

Recorded measurements of pIC50, one per entry
test-system: recombinant human HDAC1 (Homo sapiens (Human), UniProt Q13547)
Sequence (Q13547 whole entry): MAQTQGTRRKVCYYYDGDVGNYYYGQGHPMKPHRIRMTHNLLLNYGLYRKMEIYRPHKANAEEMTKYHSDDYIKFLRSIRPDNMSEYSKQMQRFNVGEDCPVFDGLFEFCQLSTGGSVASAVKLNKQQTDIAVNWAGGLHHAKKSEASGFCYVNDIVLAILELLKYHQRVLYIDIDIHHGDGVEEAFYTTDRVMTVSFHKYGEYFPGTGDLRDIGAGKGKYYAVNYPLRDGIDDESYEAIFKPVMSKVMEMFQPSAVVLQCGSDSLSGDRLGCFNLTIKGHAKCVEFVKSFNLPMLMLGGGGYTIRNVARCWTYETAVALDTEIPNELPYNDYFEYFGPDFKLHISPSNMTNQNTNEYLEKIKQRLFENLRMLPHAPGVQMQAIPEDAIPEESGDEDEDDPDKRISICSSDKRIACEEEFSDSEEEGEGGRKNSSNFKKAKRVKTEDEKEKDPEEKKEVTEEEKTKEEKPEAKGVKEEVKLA
method: Enzymatic screening, HDAC1 inhibition (fluorogenic FdL_G substrate)
pIC50: −log10 of the molar value.
value-kind: pIC50

1) Fc1cc(-c2nnc(C(F)F)o2)cc(F)c1Cn1cc(-c2ccc(CN3CC(C(F)(F)F)C3)cc2)nn1 : < 3.70
2) Cn1c(N)nc2cc(-c3cn(Cc4ccc(-c5nnc(C(F)F)o5)cc4)nn3)ccc21 : 4.52
3) [2H]C([2H])(c1ccc(-c2nnc(C(F)F)o2)cn1)n1cc(-c2ccc3nc(N)sc3c2)nn1 : < 3.00
4) Cn1c(N)nc2cc(-c3nnnn3Cc3ncc(-c4nnc(C(F)F)o4)cn3)ccc21 : < 3.70
5) Fc1cc(-c2nnc(C(F)F)o2)ccc1Cc1nc(-c2ccc(NC3=NCCN3)cc2)no1 : < 3.00
6) Nc1ccc(-c2cn(Cc3c(F)cc(-c4nnc(C(F)F)o4)cc3F)nn2)cn1 : < 3.70
7) O=c1[nH]c2cc(-c3nnn(Cc4ccc(-c5nnc(C(F)F)o5)cc4)n3)ccc2o1 : < 3.70
8) Nc1nccc2cc(-c3nnn(Cc4ccc(-c5nnc(C(F)F)o5)cc4F)n3)ccc12 : 3.00

###

method: Stability to Phase I metabolism in human S9 liver fraction
test-conditions: after 90 minutes, 37° C.
value-kind: residual percentage in HUMAN S9 FRACTION (%)

1) CC(c1ccc(-c2nnc(C(F)F)o2)cc1)n1cc(-c2ccc(N)nc2)nn1 (centres unmarked) [Compd. 117] : 93
2) C[C@@H](c1ccc(-c2nnc(C(F)F)o2)cc1)n1cc(-c2ccc(N)nc2)nn1 [compound 255] : 98
3) O=C(Nc1cccc(-c2cn(Cc3ccc(-c4nnc(C(F)F)o4)cn3)nn2)c1)N1CCOCC1 [compound 6] : 99
4) CC(c1ccc(-c2nnc(C(F)F)o2)cc1F)n1cc(-c2ccc(N)nc2)nn1 (centres unmarked) [compound 185] : 86
5) Fc1cc(-c2nnc(C(F)F)o2)cc(F)c1Cn1cc(-c2cccs2)nn1 [compound 122] : 78
6) Cn1c(N)nc2cc(-c3cn(Cc4ccc(-c5nnc(C(F)F)o5)cn4)nn3)ccc21 [Compd. 17] : 84
7) NC(=O)c1cccc(-c2nnn(Cc3ccc(-c4nnc(C(F)F)o4)cc3F)n2)c1 [compound 50] : 95
8) CS(=O)(=O)NCCC(c1ccc(-c2nnc(C(F)F)o2)cc1)c1cn(-c2ccc(N)nc2)nn1 (centres unmarked) [Compd. 62] : 95

###

test-system: recombinant human HDAC6 (Homo sapiens (Human), UniProt Q9UBN7)
Sequence (Q9UBN7 whole entry): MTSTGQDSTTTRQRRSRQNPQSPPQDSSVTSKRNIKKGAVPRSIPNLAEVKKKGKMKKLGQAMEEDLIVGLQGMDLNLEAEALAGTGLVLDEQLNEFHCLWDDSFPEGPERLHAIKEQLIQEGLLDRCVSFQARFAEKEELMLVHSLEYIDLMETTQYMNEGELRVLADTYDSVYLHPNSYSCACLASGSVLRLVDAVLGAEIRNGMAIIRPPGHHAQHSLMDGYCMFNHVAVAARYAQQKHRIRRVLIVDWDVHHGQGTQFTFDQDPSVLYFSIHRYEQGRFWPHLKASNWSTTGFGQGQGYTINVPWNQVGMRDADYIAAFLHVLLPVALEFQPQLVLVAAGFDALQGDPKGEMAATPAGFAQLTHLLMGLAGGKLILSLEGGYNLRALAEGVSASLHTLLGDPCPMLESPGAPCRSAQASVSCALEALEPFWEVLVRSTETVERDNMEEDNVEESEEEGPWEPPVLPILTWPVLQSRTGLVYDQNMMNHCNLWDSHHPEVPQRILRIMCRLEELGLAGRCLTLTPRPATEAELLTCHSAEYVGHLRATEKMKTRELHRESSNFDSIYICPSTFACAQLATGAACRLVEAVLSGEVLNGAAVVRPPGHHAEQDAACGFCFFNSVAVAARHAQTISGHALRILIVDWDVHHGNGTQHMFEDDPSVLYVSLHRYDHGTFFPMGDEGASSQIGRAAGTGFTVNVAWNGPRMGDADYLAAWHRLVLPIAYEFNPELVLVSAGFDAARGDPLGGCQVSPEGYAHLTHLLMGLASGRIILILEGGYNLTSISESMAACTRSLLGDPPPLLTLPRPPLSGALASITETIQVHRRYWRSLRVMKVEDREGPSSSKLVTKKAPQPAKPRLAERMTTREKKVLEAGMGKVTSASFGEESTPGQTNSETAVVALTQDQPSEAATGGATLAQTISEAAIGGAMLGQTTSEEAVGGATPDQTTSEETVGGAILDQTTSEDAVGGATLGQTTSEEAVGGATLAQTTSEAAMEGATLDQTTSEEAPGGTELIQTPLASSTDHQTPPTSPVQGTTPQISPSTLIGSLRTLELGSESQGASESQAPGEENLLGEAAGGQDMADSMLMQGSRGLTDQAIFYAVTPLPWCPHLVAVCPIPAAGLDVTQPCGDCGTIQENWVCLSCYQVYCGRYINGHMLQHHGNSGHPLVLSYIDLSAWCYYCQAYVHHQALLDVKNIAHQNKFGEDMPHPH
method: Enzymatic screening, HDAC6 inhibition (fluorogenic FdL_G substrate)
Assay type: biochemical
Overview of recorded IC50 for various compounds
value-kind: IC50 (µM)

1) Cn1c(N)nc2cc(-c3cn(Cc4cc(F)c(-c5nnc(C(F)F)o5)cc4F)nn3)ccc21 : 0.022
2) CN1CCc2ccc(-c3nnn(Cc4ccc(-c5nnc(C(F)F)o5)cc4)n3)cc2C1=O : 0.086
3) O=C(Nc1cccc(-c2cnn(Cc3ccc(-c4nnc(C(F)F)o4)cn3)c2)c1)N1CCOCC1 : 0.045
4) Nc1ccc(-c2cn([C@H](CN3CCCC3)c3ccc(-c4nnc(C(F)F)o4)cc3)nn2)cn1 : 0.308
5) NCc1ccc(-c2nnn(Cc3ccc(-c4nnc(C(F)F)o4)cc3)n2)cc1 : 0.02
6) NCc1ccc(-c2nc(Cc3c(F)cc(-c4nnc(C(F)F)o4)cc3F)no2)cc1 : 0.039
7) Nc1ccc(-c2cn(C(CCN3CCCC3)c3ccc(-c4nnc(C(F)F)o4)cc3)nn2)cn1 (stereo not shown) : 0.049
8) CC[C@H](c1ccc(-c2nnc(C(F)F)o2)cc1)n1cc(-c2cccc(NC(=O)N3CCOCC3)c2)nn1 (stereo in doubt) : 0.096
9) NCc1ccc(-c2cn(Cc3c(F)cc(-c4nnc(C(F)F)o4)cc3F)nn2)cn1 : 0.039
10) CNc1ccc2cc(-c3cn(Cc4ccc(-c5nnc(C(F)F)o5)cn4)nn3)ccc2n1 : 0.015
11) FC(F)c1nnc(-c2ccc(Cn3nnc(-c4cccc(-c5nc6c([nH]5)CCNC6)c4)n3)nc2)o1 : 0.009
12) Nc1ccc(-c2nnnn2Cc2ncc(-c3nnc(C(F)F)o3)cn2)cn1 : 0.068
13) Fc1cc(-c2nnc(C(F)F)o2)cc(F)c1Cn1cc(-c2cccs2)nn1 : 0.046
14) FC(F)c1nnc(-c2ccc(Cn3nnc(C4(c5ccccn5)CC4)n3)cc2)o1 : 0.063
15) Cn1c(N)nc2cc(-c3cn(Cc4ccc(-c5nnc(C(F)F)o5)c(F)c4)nn3)ccc21 : 0.026
16) CNc1ncc2cc(-c3cn(Cc4ccc(-c5nnc(C(F)F)o5)c(F)c4)nn3)ccc2n1 : 0.497

###

method: Stability to Phase I metabolism in rat S9 liver fraction
test-conditions: after 90 minutes, 37° C.
value-kind: residual percentage in RAT S9 FRACTION (%)

1) Nc1ccc(-c2cn(Cc3ccc(-c4nnc(C(F)F)o4)c(F)c3F)nn2)cn1 [compound 21] : 90
2) FC(F)c1nnc(-c2ccc(Cn3nnc(-c4ccc5ccccc5n4)n3)cc2)o1 [compound 113] : 85
3) FC(F)c1nnc(-c2ccc(Cn3nnnc3-c3csc4ccccc34)cc2)o1 [compound 288] : 9
4) Cn1c(N)nc2cc(-c3nnn(Cc4ccc(-c5nnc(C(F)F)o5)cc4)n3)ccc21 [compound 11] : 90
5) O=C1NCc2ccc(-c3nnn(Cc4ccc(-c5nnc(C(F)F)o5)c(F)c4)n3)cc21 [compound 97] : 95
6) Nc1ccc(-c2nnc(Cc3ccc(-c4nnc(C(F)F)o4)cc3)o2)cn1 [Compd. 218] : 89
7) Cn1c(N)nc2cc(-c3cn(Cc4ccc(-c5nnc(C(F)F)o5)cn4)nn3)ccc21 [Compd. 17] : 99
8) O=C1Nc2cc(-c3cn(Cc4ccc(-c5nnc(C(F)F)o5)cn4)nn3)ccc2NC12CCNCC2 [compound 41] : 92
9) FC(F)c1nnc(-c2ccc(Cn3cc(-c4ccc(NC5=NCCN5)cc4)cn3)cc2)o1 [compound 269] : 69
10) FC(F)c1nnc(-c2ccc(Cn3nnc(-c4cccc(-c5nc6c([nH]5)CCNC6)c4)n3)cc2)o1 [compound 108] : 68
11) Nc1nc2cc(-c3cn(Cc4ccc(-c5nnc(C(F)F)o5)cn4)nn3)ccc2s1 [Compd. 3] : 90
12) O=C(Nc1cccc(-c2cn(Cc3ccc(-c4nnc(C(F)F)o4)cn3)cn2)c1)N1CCOCC1 [compound 264] : 92
13) CC(=O)Nc1cccc(-c2cn(Cc3ccc(-c4nnc(C(F)F)o4)cn3)nn2)c1 [compound 37] : 78
14) Nc1ccc(-c2cn(Cc3ccc(-c4nnc(C(F)F)o4)cn3)cn2)cn1 [compound 12] : 98
15) NC(=O)c1cccc(-c2nnn(Cc3ccc(-c4nnc(C(F)F)o4)cc3F)n2)c1 [compound 50] : 66
16) CC[C@H](c1ccc(-c2nnc(C(F)F)o2)cc1)n1cc(-c2ccc(N)nc2)nn1 (stereo in doubt) [compound 194] : 77
17) O=C(Nc1cc(-c2nnn(Cc3ccc(-c4nnc(C(F)F)o4)cn3)n2)ccc1O)N1CCOCC1 [compound 2] : 61
18) Nc1ccc(-c2nc(Cc3ccc(-c4nnc(C(F)F)o4)cc3)no2)cn1 [compound 247] : 65
19) CN(C)C(=O)c1cccc(-c2nnn(Cc3ccc(-c4nnc(C(F)F)o4)cc3)n2)c1 [compound 81] : 14
20) O=C(c1cccc(-c2nnn(Cc3ccc(-c4nnc(C(F)F)o4)cn3)n2)c1)N1CCOCC1 [compound 69] : 83
21) Nc1nc2ccc(-c3cn(Cc4ccc(-c5nnc(C(F)F)o5)cn4)nn3)cc2[nH]1 [Compd. 30] : 96
22) Nc1ccc(-c2cnn(Cc3ccc(-c4nnc(C(F)F)o4)cc3)c2)cn1 [compound 211] : 80
23) CN1CCN(C(=O)Nc2cccc(-c3cn(Cc4ccc(-c5nnc(C(F)F)o5)cn4)nn3)c2)CC1 [Compd. 51] : 62
24) C[C@@H](c1ccc(-c2nnc(C(F)F)o2)cc1)n1cc(-c2cccc(NC(=O)N3CCOCC3)c2)nn1 (stereo in doubt) [compound 104] : 78
25) CCC[C@@H](c1ccc(-c2nnc(C(F)F)o2)cc1)n1cc(-c2ccc(N)nc2)nn1 [compound 250] : 89
